Data provenance is the supplement of paper PMC10646978.

tested on: RAW-Dual (murine macrophage reporter line); assay: IRF reporter (Lucia luciferase) activity fold change vs agonist alone; higher = enhanced IRF activity; conditions: modulator concentration 10 µM; agonist: 3'3'-cGAMP 10 ug/mL
EXPERIMENTAL_READOUT: IRF reporter

COMPOUND | EXPERIMENTAL_TARGET | EXPERIMENTAL_READOUT | RESULT_NUMBER
Cl.NCc1ccc(S(N)(=O)=O)cc1 | RAW-Dual (murine macrophage reporter line) | IRF reporter | 0.964
CN(C)CCC=C1c2ccccc2Sc2ccc(Cl)cc21.Cl | RAW-Dual (murine macrophage reporter line) | IRF reporter | 0.412
O=C(c1ccccc1)c1ccc2n1CCC2C(=O)O (stereo unspecified) | RAW-Dual (murine macrophage reporter line) | IRF reporter | 0.94
CCc1ccc2nc(NCCCN3CCOCC3)sc2c1 | RAW-Dual (murine macrophage reporter line) | IRF reporter | 0.866
CCCC1=NN(c2ccc([N+](=O)[O-])cc2)C(=O)C1=CNC1CC1 | RAW-Dual (murine macrophage reporter line) | IRF reporter | 0.999
COC(=O)C1=CN(C2CC2)C=C(C(=O)OC)C1c1ccccc1OC | RAW-Dual (murine macrophage reporter line) | IRF reporter | 0.934
